Target: T1, Extracellular domain of cyno PD1 (cPD1-ECD) (Macaca fascicularis (cynomolgus))
T1 construct: Expressed with a hexahistidine tag or as Fc fusion; also called cynoPD1-ECD; cynoPD-1-ECD
T1 chain: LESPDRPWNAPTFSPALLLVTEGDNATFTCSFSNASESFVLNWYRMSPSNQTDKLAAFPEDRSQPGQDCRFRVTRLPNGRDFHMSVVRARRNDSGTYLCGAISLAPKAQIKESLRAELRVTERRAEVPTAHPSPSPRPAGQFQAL
Experiment: SPR ProteOn, cynoPD1-ECD; RANGE low replicate
Assignment: determine reported Kd for the given binders.
Note: unit µM is implicit; provide only the numeric part.

Name the reported Kd value associated with the binder PD1B195 (antibody, V domains shown, also called PD1H170/PD1L67) VH: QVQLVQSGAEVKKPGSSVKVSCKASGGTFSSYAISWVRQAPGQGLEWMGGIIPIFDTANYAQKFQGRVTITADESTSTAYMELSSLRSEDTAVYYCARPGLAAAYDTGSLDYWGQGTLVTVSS VL: EIVLTQSPATLSLSPGERATLSCRASQSVDSYLAWYQQKPGQAPRLLIYDASNRATGIPARFSGSGSGTDFTLTISSLEPEDFAVYYCQQREYWPLTFGQGTKVEIK 0.00091

Entry PD1B71 (antibody, V domains shown, Tested as IgG2sigma/kappa; also called PD1H108/PH9L3) VH: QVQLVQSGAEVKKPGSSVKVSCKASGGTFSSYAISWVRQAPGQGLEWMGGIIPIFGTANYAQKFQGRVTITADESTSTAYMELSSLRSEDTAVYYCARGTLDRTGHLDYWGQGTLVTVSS VL: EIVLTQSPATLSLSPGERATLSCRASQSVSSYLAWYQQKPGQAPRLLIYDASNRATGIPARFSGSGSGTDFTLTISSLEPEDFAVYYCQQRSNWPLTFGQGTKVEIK : reported Kd = ? 0.0444

Could you share which Kd value was measured for PD1B11 (antibody, V domains shown, Tested as IgG2sigma/kappa; also called PD1H3/PH9L3) VH: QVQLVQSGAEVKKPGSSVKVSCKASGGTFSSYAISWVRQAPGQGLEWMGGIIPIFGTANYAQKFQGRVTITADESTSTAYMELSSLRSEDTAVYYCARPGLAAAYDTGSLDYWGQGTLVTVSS VL: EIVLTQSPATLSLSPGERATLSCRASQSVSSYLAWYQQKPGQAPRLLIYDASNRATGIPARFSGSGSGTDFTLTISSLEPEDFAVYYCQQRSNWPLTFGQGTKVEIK ? 0.0268

Name the reported Kd value associated with the binder PD1B70 (antibody, V domains shown, Tested as IgG2sigma/kappa; also called PD1H107/PH9L3) VH: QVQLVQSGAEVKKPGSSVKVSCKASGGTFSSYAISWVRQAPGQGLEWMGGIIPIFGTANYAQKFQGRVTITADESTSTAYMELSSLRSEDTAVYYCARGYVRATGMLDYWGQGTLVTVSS VL: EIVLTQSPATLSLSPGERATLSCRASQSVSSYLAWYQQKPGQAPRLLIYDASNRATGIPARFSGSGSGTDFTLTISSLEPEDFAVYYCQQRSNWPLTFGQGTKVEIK 0.0796

All figures here come from patent US20210277110A1.
